Target: NHERF4_2, Q86UT5
Sequence (Q86UT5 220-308): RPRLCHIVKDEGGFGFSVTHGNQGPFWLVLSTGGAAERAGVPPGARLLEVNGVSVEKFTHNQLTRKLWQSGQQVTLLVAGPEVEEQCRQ
Assay: holdup assay
Set-up: key: below the threshold = too weak to quantify, mostly under pKd 3.1 to 4
Conditions: plain residues with an end cap or a label only (N-terminal biotin on a linker: ado-ado)
MEASURE_NAME: pKd

>  <BINDER>
DLLGGGSDSI [TNRC6B, Q9UPQ9]

>  <pKd>
below the threshold

$$$$
>  <BINDER>
NNMAFETTHF [SLC5A12, Q1EHB4]

>  <pKd>
below the threshold

$$$$
>  <BINDER>
VKQYADVEGF [HNRNPK, P61978;P61978-2]

>  <pKd>
below the threshold

$$$$
>  <BINDER>
KEKASTETEC [TRPM1, Q7Z4N2]

>  <pKd>
below the threshold

$$$$
>  <BINDER>
GVHSNDHSVV [LPAR1, Q92633]

>  <pKd>
below the threshold

$$$$
>  <BINDER>
DYSNLRETDI [ADRA1D, P25100]

>  <pKd>
below the threshold

$$$$
>  <BINDER>
EKPIDSETKM [SLC1A3, P43003]

>  <pKd>
below the threshold

$$$$
>  <BINDER>
QQGLLPHSSC [TYRO3, Q06418]

>  <pKd>
below the threshold

$$$$

Give recorded pKd. GQNMTVSVVI [PRLHR, P49683] below the threshold

In one line, give reported pKd of the entry PSVYSRSQYV [CLDN8, P56748] . below the threshold

Answer with the recorded pKd of ELKAEDEVQI [DCHS2, Q6V1P9] only. below the threshold

State, in one line, measured pKd of STYCDYTIEI [FAM71C, Q8NEG0] 3.51

Name the recorded pKd of the binder listed here: AKADAQESRL [PLCB2, Q00722] below the threshold

Recall and state the measured pKd for GSQSQVETEA [FKBP4, Q02790] . below the threshold
